The values you see were collected from patent US8754068B2.

# System: recombinant NL4-3 virus (Renilla luciferase in nef, Gag P373S)
# protocol_summary: HIV cell culture assay (luciferase reporter virus in MT-2 cells)
# Format: cell-based
# cond: NL43
pEC50: −log10 of the molar value.
quantity_measured: pEC50

// pEC50 lookup, key: `C=C(C)[C@@H]1CC[C@]2(CO)CC[C@]3(C)[C@H](CC[C@@H]4[C@@]5(C)CC=C(c6ccc(C(=O)O)cc6C)C(C)(C)[C@@H]5CC[C@]43C)[C@@H]12`
> 6.00

// pEC50 lookup, key: `C=C(C)[C@@H]1CC[C@]2(C(=O)O)CC[C@]3(C)[C@H](CC[C@@H]4[C@@]5(C)CC=C(c6cccc(S(=O)(=O)NC)c6)C(C)(C)[C@@H]5CC[C@]43C)[C@@H]12`
> 6.00

// pEC50 lookup, key: `C=C(C)[C@@H]1CC[C@]2(C(=O)O)CC[C@]3(C)[C@H](CC[C@@H]4[C@@]5(C)CC=C(c6cccc(C(=O)O)c6)C(C)(C)[C@@H]5CC[C@]43C)[C@@H]12`
< 6.00

// pEC50 lookup, key: `C=C(C)[C@@H]1CC[C@]2(C(=O)O)CC[C@]3(C)[C@H](CC[C@@H]4[C@@]5(C)CC=C(c6ccc(C(=O)O)c(Cl)c6)C(C)(C)[C@@H]5CC[C@]43C)[C@@H]12`
> 6.00

// pEC50 lookup, key: `C=C(C)[C@@H]1CC[C@]2(CO)CC[C@]3(C)[C@H](CC[C@@H]4[C@@]5(C)CC=C(c6ccc(C(=O)O)cn6)C(C)(C)[C@@H]5CC[C@]43C)[C@@H]12`
> 6.00

// pEC50 lookup, key: `C=C(C)[C@@H]1CC[C@]2(C(=O)O)CC[C@]3(C)[C@H](CC[C@@H]4[C@@]5(C)CC=C(c6cccc(NS(C)(=O)=O)c6)C(C)(C)[C@@H]5CC[C@]43C)[C@@H]12`
< 6.00

// pEC50 lookup, key: `C=C(C)[C@@H]1CC[C@]2(CO)CC[C@]3(C)[C@H](CC[C@@H]4[C@@]5(C)CC=C(c6ccc(O)nc6)C(C)(C)[C@@H]5CC[C@]43C)[C@@H]12`
< 6.00
